Measured values drawn from PubChem BioAssay AID463173 for this set.

System: DeltatarO mutant
testDetails: S. aureus survival, RN4220 and DeltatarO strains – OD600, teichoic acid synthesis inhibitors, primary screen (AID 463173)
conditionContext: S. aureus RN4220 wild type/DeltatarO growth, OD600, 18 h, hits give low values, screened at 18.75 µg/mL (by protocol)
Screen size: about 52,000 compounds; about 4,300 (8.3%) were called active. What follows is part of a selection rich in actives, with near analogues and random picks from the rest.
measuredQuantity: survival (%)

INSERT INTO results (compound, assayedsystem, numericvalue) VALUES
  ('COc1ccc(NC(=O)c2oc3ccc(S(=O)(=O)N4CCC5(CC4)OCCO5)cc3c2C)cc1Cl', 'DeltatarO mutant', 80),
  ('CC(C)c1ccc(NC(=O)CSC2=Nc3ccccc3C3=NC(CC(=O)NCCc4ccccc4)C(=O)N23)cc1 (stereo not given)', 'DeltatarO mutant', 72),
  ('COc1ccc(CNC(=O)CCc2c(C)nc3cc(-c4ccc(OC)cc4OC)nn3c2C)cc1', 'DeltatarO mutant', 121),
  ('COC(=O)c1ccc(C(=O)OC)c(NC(C)=O)c1', 'DeltatarO mutant', 73),
  ('Cc1ccc(CN2C(=O)CN(C3CCCCCC3)C(=O)C2c2ccc(F)cc2)cc1 (stereo not given)', 'DeltatarO mutant', 6);

----------
Test system: DeltatarO mutant
testDetails: S. aureus survival, RN4220 and DeltatarO strains – OD600, teichoic acid synthesis inhibitors, primary screen (AID 463173)
conditionContext: S. aureus RN4220 wild type/DeltatarO growth, OD600, 18 h, hits give low values, screened at 18.75 µg/mL (by protocol)
The whole screen tested about 52,000 compounds, of which about 4,300 (8.3%) were called active. Many of the other results were omitted from the sample, so actives are more common in it than they were.
Note to self: use Fulfilled only for survival readings below 70%; a reading exactly at 70% still gets Not fulfilled.

INSERT INTO results (compound, assayedsystem, category) VALUES
  ('O=C(Nc1ccc(F)c(Cl)c1)C1CCN(c2ncccn2)CC1', 'DeltatarO mutant', 'Fulfilled'),
  ('CN1CCN(S(=O)(=O)c2ccc(Br)c3ccccc23)CC1', 'DeltatarO mutant', 'Not fulfilled'),
  ('COc1ccc(C(=O)NNc2ncnc3c2cnn3-c2ccccc2)cc1', 'DeltatarO mutant', 'Not fulfilled'),
  ('CC(=O)N1CCc2nc3sc(C(=O)Nc4ccc(Cl)cc4F)c(N)c3c(C(F)(F)F)c2C1', 'DeltatarO mutant', 'Not fulfilled'),
  ('Cc1ccc(C(=O)/C=C/c2cn(CC(O)CN3CCCCCC3)c3ccccc23)cc1 (configuration not stated)', 'DeltatarO mutant', 'Fulfilled'),
  ('CCc1ccc(S(=O)(=O)Nc2ccc3c(c2)n(C)c(=O)c(=O)n3C)cc1', 'DeltatarO mutant', 'Not fulfilled'),
  ('CC(C)NC(=O)C1CCN(c2nc3ccccc3nc2C(F)(F)F)CC1', 'DeltatarO mutant', 'Not fulfilled'),
  ('O=C(Cn1cc(SCc2ccc(Br)cc2)c2ccccc21)N1CCCCC1', 'DeltatarO mutant', 'Not fulfilled'),
  ('CC(=O)c1cccc(-n2c(CCC(=O)O)ccc2-c2ccccc2)c1', 'DeltatarO mutant', 'Not fulfilled'),
  ('O=C(Nc1ccc2oc(-c3cccnc3)nc2c1)c1ccc(-c2ccc(OC(F)(F)F)cc2)o1', 'DeltatarO mutant', 'Not fulfilled'),
  ('COc1ccc(C(=O)/C=C/c2cn(CC(O)CN3CCCCCC3)c3ccccc23)cc1OC (configuration not stated)', 'DeltatarO mutant', 'Not fulfilled'),
  ('CCOc1ccc(N2CC(NC(=O)c3ccc(S(=O)(=O)N4CCOCC4)cc3)CC2=O)cc1 (configuration not stated)', 'DeltatarO mutant', 'Fulfilled'),
  ('CCC(CO)Nc1ncnc2c1cnn2-c1ccc(C)cc1 (configuration not stated)', 'DeltatarO mutant', 'Fulfilled'),
  ('O=C(NC1CC(=O)N(c2ccccc2)C1)c1ccc(S(=O)(=O)N2CCCCC2)cc1 (configuration not stated)', 'DeltatarO mutant', 'Fulfilled'),
  ('O=C(NC1CC(=O)N(c2ccccc2)C1)c1ccc(S(=O)(=O)N2CCCC2)cc1 (configuration not stated)', 'DeltatarO mutant', 'Not fulfilled'),
  ('CCCCc1ccc(Nc2ncnc3c2cnn3-c2ccc(C)cc2)cc1', 'DeltatarO mutant', 'Fulfilled'),
  ('O=C(O)CCc1ccc(-c2ccccc2)n1-c1ccc(C(=O)O)cc1', 'DeltatarO mutant', 'Not fulfilled'),
  ('CCc1ccc(-c2nc3cc(NC(=O)c4ccc(F)cc4)ccc3o2)cc1', 'DeltatarO mutant', 'Not fulfilled'),
  ('O=C(Nc1ccc(Cl)cc1)C1CCN(c2nc3ccccc3nc2C(F)(F)F)CC1', 'DeltatarO mutant', 'Fulfilled'),
  ('CCOc1ccc(N2CC(NC(=O)c3ccc(S(=O)(=O)N4CCCCC4)cc3)CC2=O)cc1 (configuration not stated)', 'DeltatarO mutant', 'Not fulfilled'),
  ('CCOC(=O)c1scc(-c2ccccc2)c1S(=O)(=O)Nc1cc(OC)cc(OC)c1', 'DeltatarO mutant', 'Not fulfilled'),
  ('O=C(/C=C/c1cn(CC(O)CN2CCCCCC2)c2ccccc12)c1ccc(Br)cc1 (configuration not stated)', 'DeltatarO mutant', 'Fulfilled'),
  ('CC1C(=O)CC(c2ccco2)NC1c1ccco1 (configuration not stated)', 'DeltatarO mutant', 'Fulfilled'),
  ('CCOc1ccc(C(=O)OC(C)CN2CCCCC2)cc1 (configuration not stated)', 'DeltatarO mutant', 'Not fulfilled'),
  ('CCc1ccc(C(=O)Nc2cccc(-c3nc4cc(C(C)C)ccc4o3)c2)cc1', 'DeltatarO mutant', 'Fulfilled'),
  ('CCOc1ccc(C(=O)/C=C/c2cn(CC(O)CN3CCCCCC3)c3ccccc23)cc1 (configuration not stated)', 'DeltatarO mutant', 'Fulfilled'),
  ('Cc1cccc(N2CCN(S(=O)(=O)c3ccc4c(c3)CCCN4C(=O)C3CCC3)CC2C)c1 (configuration not stated)', 'DeltatarO mutant', 'Not fulfilled'),
  ('CCOc1ccc2nc(NC(=O)c3nc(SCc4ccc(C)cc4)ncc3Cl)sc2c1', 'DeltatarO mutant', 'Fulfilled'),
  ('O=C(Nc1ccc(F)cc1)C1CCN(c2nc3ccccc3nc2C(F)(F)F)CC1', 'DeltatarO mutant', 'Not fulfilled'),
  ('O=C(NC1CC(=O)N(c2ccc(F)cc2)C1)c1ccc(S(=O)(=O)N2CCCCC2)cc1 (configuration not stated)', 'DeltatarO mutant', 'Not fulfilled'),
  ('CC(C(=O)NCc1ccco1)N1C(=O)c2ccccc2C1=O (configuration not stated)', 'DeltatarO mutant', 'Fulfilled'),
  ('CCOc1ccc(N2CC(NC(=O)c3ccc(S(=O)(=O)N4CCCC4)cc3)CC2=O)cc1 (configuration not stated)', 'DeltatarO mutant', 'Not fulfilled'),
  ('O=C(O)C1CSC2c3ccccc3C(=O)N12 (configuration not stated)', 'DeltatarO mutant', 'Not fulfilled'),
  ('Cc1ccc(-n2ncc3c(NC(C)c4ccccc4)ncnc32)cc1 (configuration not stated)', 'DeltatarO mutant', 'Not fulfilled'),
  ('Cc1cc(C)cc(NC(=O)C2CCN(c3nc4ccccc4nc3C(F)(F)F)CC2)c1', 'DeltatarO mutant', 'Not fulfilled'),
  ('Cc1ccc(-n2ncc3c(NCCCc4ccccc4)ncnc32)cc1', 'DeltatarO mutant', 'Not fulfilled'),
  ('CCn1c(CNC(=O)c2ccc(OC)cc2)nnc1SCC(=O)Nc1cc(C)ccc1C', 'DeltatarO mutant', 'Not fulfilled'),
  ('CC(C)(C)c1ccc(C(=O)NNc2ncnc3c2cnn3-c2ccccc2)cc1', 'DeltatarO mutant', 'Not fulfilled');

----------
System: DeltatarO mutant
testDetails: S. aureus survival, RN4220 and DeltatarO strains – OD600, teichoic acid synthesis inhibitors, primary screen (AID 463173)
conditionContext: S. aureus RN4220 wild type/DeltatarO growth, OD600, 18 h, screened at 18.75 µg/mL (by protocol)
Out of some 52,000 compounds screened, about 4,300 (8.3%) were called active. Cut-off read from the data, not from the text of the source: active = survival mostly below about 52% (no sharp cut-off); inactive = mostly above about 56%. Many of the other results were omitted from the sample, so actives are more common in it than they were.
Labels: active, inactive

INSERT INTO assay_data (compound, category) VALUES
  ('CN(C)c1ccc(C(CNC(=O)Cc2ccc(Cl)cc2)N2CCOCC2)cc1 (stereo not given)', 'inactive'),
  ('CN(C)c1ccc(C(CNS(=O)(=O)c2ccc(Cl)cc2)N2CCOCC2)cc1 (stereo not given)', 'active'),
  ('CN(C)c1ccc(C(CNS(=O)(=O)c2ccc(F)cc2)N2CCOCC2)cc1 (stereo not given)', 'inactive'),
  ('Cc1ccc(S(=O)(=O)NCC(c2ccc(N(C)C)cc2)N2CCOCC2)cc1 (stereo not given)', 'inactive'),
  ('CN(C)c1ccc(C(CNC(=O)c2ccccc2Cl)N2CCCC2)cc1 (stereo not given)', 'inactive'),
  ('Cc1cccc(Nc2c(-c3cccs3)nc3nc(C)cc(C)n23)c1', 'inactive'),
  ('CCOc1ccc(N2CC(NC(=O)C3CCCCC3)CC2=O)cc1 (stereo not given)', 'inactive'),
  ('Cc1nn2c(=O)cc(COC(=O)c3cccs3)nc2s1', 'inactive'),
  ('COCCCNC(=O)CSc1nc2cc3c(cc2c(=O)n1CCCC(=O)NCc1ccc2c(c1)OCO2)OCO3', 'inactive'),
  ('CN(C)c1ccc(C(CNC(=O)c2c(F)cccc2Cl)N2CCOCC2)cc1 (stereo not given)', 'active');
